Parameter: Ki. Scope: all listed entries.
target: XIAP BIR3 (Homo sapiens (Human), UniProt P98170); assay: XIAP BIR3 Ki; assay type: binding; conditions: Table B-1
Sequence (P98170 241-356): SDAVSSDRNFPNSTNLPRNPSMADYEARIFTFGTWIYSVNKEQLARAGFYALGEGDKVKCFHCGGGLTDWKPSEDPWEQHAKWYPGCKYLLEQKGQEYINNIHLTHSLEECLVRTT

Sample records with Ki:
Please fill in: Ki reported for `CN[C@@H](C)C(=O)N[C@H]1CCO[C@H]2CC[C@@H](C(=O)N[C@@H]3CCOc4ccccc43)N2C1=O` = ≤ 25 µM

Please fill in: Ki reported for CN[C@@H](C)C(=O)N[C@H]1CO[C@H]2CCC(C(=O)NCc3ccccc3)N2C1=O (some centres unmarked) [Compound 6] = 25 to 50 µM

Please fill in: Ki reported for `CN[C@@H](C)C(=O)N[C@H]1CCS[C@H]2CC[C@H](C(=O)N[C@@H]3CCCc4ccccc43)N2C1=O` = ≤ 25 µM

Please fill in: Ki reported for CN[C@@H](C)C(=O)N[C@H]1CO[C@H]2CCC(C(=O)Nc3ccc(OC)cc3)N2C1=O (some centres unmarked) [Compound 3] = 25 to 50 µM

Here is another compound to look at.
Please fill in: Ki reported for CN[C@@H](C)C(=O)N[C@H]1Cc2c([nH]c3ccccc23)[C@H]2CCC(C(=O)N[C@@H]3CCCc4ccccc43)N2C1=O (some centres unmarked) [Compound 30] = 25 to 50 µM
